- Target System: HLA-B*45:06
- Protocol Notes: IEDB peptide-MHC binding, purified MHC/competitive/fluorescence; filed as Kd, often an IC50 or EC50 that approximates it; bounds were set here for any values at or beyond the usual limits of such assays
- Run Conditions: source organism: Entamoeba histolytica HM-1:IMSS
pKd: −log10 of the molar value.
Observable: pKd

Give recorded pKd with HLA-B*45:06 for the following sequence: MPYHGYHII
≤ 5.30

----------
Provide the reported pKd of each item.
- Target System: HLA-A*02:03
- Protocol Notes: IEDB peptide-MHC binding, purified MHC/competitive/radioactivity; filed as Kd, often an IC50 or EC50 that approximates it; bounds were set here for any values at or beyond the usual limits of such assays
- Run Conditions: source organism: SARS coronavirus Tor2
Value format note: pKd is -log10 of concentration (mol/L); just state the number.

Can you share its pKd? I mean this sequence: TLNEDLLEI
8.65

Can you share its pKd? I mean this sequence: FVDGVPFVV
7.07

Can you share its pKd? I mean this sequence: LLALQQLEV
9.53

Can you share its pKd? I mean this sequence: TMADLVYAL
7.79

Can you share its pKd? I mean this sequence: LLFLVLIMLI
5.50
